Protocol: Cell viability, 72 h incubation, isogenic knockout
Format: cell-based, human
Experimental setup: human
Value kind: viability at 72 h, 7.5 µM (%)
The answer is to be given in %; state only the numeric part.

input: Which viability at 72 h, 7.5 µM value belongs to CCn1c2ccc(CNC)cc2c2ccc(-c3cccs3)cc21 ?
output: 88

###

Protocol: Cell viability, 72 h incubation, isogenic knockout
Type: cell-based, human
Experimental setup: human
Value kind: viability at 72 h, 15 µM
Note: a bare number is incomplete; add the unit.

input: Which viability at 72 h, 15 µM value belongs to CCn1c2ccc(CNC)cc2c2ccc(-c3cccs3)cc21 ?
output: 40%
